Provenance of the data: patent US20180273528A1

# SYSTEM NAME: His-TEV-DYRK1A Kinase domain (aa127-485) (Homo sapiens, UniProt Q13627)
# Construct: His-TEV-DYRK1A Kinase domain (aa127-485); His tag (N); TEV protease cleavage site (N)
# TEST DESCRIPTION: Kinase ADP assay (ADP Hunter), DYRK1A kinase domain
# Format: biochemical
# CONDITIONS: 20 μM ATP
hey, just use Yes if measured IC50 is less than 0.05 µM, otherwise No

Use these answered entries as a reference point.
COMPOUND	LABEL VALUE
CCC1(Cn2c(C)nc3ccc(-c4cc(N)nc(N)c4)nc32)CC1	Yes
COc1cccc(O[C@@H](C)Cn2c(C)nc3ccc(-c4cc(N)nc(N)c4)nc32)c1 (single isomer, unassigned)	Yes
Cc1cc([C@@H](C)n2c(C)nc3ccc(-c4cc(N)nc(N)c4)nc32)ccn1	Yes
CCCCc1nc2ccc(-c3cc(N)nc(N)c3)nc2n1CCOc1ccccc1	No
Cc1ccc(OCCn2c(C)nc3ccc(-c4cc(N)nc(N)c4)nc32)cc1	Yes
Cc1nc2ccc(-c3cc(N)nc(N)c3)nc2n1C[C@@H](C)Oc1ccccc1Cl (single isomer, unassigned)	Yes
Cc1nc2ccc(-c3cc(N)nc(N)c3)nc2n1CCOc1cccc(Br)n1	Yes
Cc1nc2ccc(-c3cc(N)nc(N)c3)nc2n1CCc1ccccc1	Yes

--- query ---
Req: Given Cc1nc2ccc(-c3cc(N)nc(N)c3)nc2n1C[C@@H]1C[C@H]1c1ccccc1 (single isomer, unassigned) , is recorded IC50 strictly lower than 0.05 µM?
Resp: Yes
